target: EGFR T790M L858R (Homo sapiens, UniProt P00533, L858R/T790M); assay: EGFR T790M L858R biochemical assay (Caliper mobility shift); conditions: 5 μM ATP; apparent Ki (Morrison fit) converted by Cheng-Prusoff, Km of ATP 1.3 μM
Sequence (P00533 25-1210 T790M/L858R): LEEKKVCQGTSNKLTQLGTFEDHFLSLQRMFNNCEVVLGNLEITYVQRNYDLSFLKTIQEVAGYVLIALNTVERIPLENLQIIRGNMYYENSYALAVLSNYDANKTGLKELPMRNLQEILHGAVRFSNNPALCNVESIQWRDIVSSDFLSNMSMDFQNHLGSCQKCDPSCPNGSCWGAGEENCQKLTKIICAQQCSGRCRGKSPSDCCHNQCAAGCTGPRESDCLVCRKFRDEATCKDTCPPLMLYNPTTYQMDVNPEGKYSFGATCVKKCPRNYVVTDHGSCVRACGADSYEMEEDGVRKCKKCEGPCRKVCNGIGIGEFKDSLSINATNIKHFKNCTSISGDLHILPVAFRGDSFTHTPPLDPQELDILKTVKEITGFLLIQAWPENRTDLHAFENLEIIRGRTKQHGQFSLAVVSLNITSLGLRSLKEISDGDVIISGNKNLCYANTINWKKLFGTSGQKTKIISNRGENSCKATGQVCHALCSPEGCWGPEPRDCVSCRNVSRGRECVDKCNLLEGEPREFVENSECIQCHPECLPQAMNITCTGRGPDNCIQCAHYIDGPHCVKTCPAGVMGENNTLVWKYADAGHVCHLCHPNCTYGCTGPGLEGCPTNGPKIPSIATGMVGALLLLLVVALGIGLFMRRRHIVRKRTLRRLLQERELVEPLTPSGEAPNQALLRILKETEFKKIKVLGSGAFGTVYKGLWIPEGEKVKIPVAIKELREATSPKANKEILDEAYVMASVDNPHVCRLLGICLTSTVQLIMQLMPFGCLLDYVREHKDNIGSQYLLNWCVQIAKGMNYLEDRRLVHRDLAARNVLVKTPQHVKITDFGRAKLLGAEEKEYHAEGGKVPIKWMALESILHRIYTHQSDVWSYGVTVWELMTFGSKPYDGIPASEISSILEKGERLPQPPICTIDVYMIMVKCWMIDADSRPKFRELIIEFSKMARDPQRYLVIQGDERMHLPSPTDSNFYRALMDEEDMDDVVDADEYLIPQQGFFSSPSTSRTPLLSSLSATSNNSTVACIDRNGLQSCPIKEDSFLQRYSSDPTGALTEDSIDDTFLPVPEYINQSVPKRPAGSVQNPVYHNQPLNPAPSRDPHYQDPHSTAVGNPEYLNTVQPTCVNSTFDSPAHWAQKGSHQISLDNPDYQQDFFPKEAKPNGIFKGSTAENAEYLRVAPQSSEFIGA
Measured Attribute: Ki (nM)

Answered examples (3):
* CC(C)n1nc(N2CCN(C(=O)CO)CC2)c2cnc(Nc3ccnc(N4CCC(C)(O)CC4)n3)cc21 | 10.3
* CC(n1nc(N2CC3(COC3)C2)c2cnc(Nc3ccnc(-c4cnn(S(=O)(=O)C5CC5)c4)n3)cc21)C(F)(F)F (stereo not drawn) | 1.8
* COC1CCN(c2nccc(Nc3cc4c(cn3)c(N)nn4C[C@H]3CC[C@H](N)CC3)n2)CC1 | 9.2

A = CC(C)n1nc(N2CC(O)C(F)C2)c2cnc(Nc3ccnc(-c4cnn(S(=O)(=O)C5CC5)c4)n3)cc21 (stereo not drawn)
B = CC(C)n1nc(NC2COC2)c2cnc(Nc3ccnc(-c4cnn(S(=O)(=O)C5CC5)c4)n3)cc21
Q: Pick the one with the larger Ki: A vs B Pick one; state its label.
Result: A

A = CC(C)n1nc(N2CC(C(=O)N3CC[C@H](CO)C3)C2)c2cnc(Nc3ccnc(-c4cnn(S(=O)(=O)C5CC5)c4)n3)cc21
B = CC(C)n1nc(NCC(F)(F)F)c2cnc(Nc3ccnc(-c4cnn(S(=O)(=O)C5CC5)c4)n3)cc21
Q: Please choose the item with the lower Ki value from this pair: A and B Identify your pick by its label.
Result: A
(A: 0.7 nM, B: 8.2 nM)

A = CCS(=O)(=O)n1cc(-c2nccc(Nc3cc4c(cn3)c(N3CC(C(=O)N(C)C)C3)nn4C(C)C)n2)cn1
B = CC(C)n1nc(N2CC[C@H](CO)C2)c2cnc(Nc3ccnc(-c4cnn(S(=O)(=O)C5CC5)c4)n3)cc21
Q: Of the two listed items, A and B , which carries the larger Ki figure? Return value: the label identifying the chosen record.
Result: B
(B: 1.2 nM, A: 0.7 nM)
